Give measured chemical recovery for each item. Keep answers brief.
Experiment: chemical recovery from spiked human plasma; higher = better extraction
Settings: pooled human plasma; extraction method: PES+SPE (3 d PDMS equilibration then HLB SPE)
Give bare numbers, in %.

Below: 4 compounds and their reported chemical recovery.
compound string | units of measure | assay result
CSC1=N[C@@](C)(c2ccccc2)C(=O)N1Nc1ccccc1 | % | 60.6
O=C(O)C(F)(F)C(F)(F)C(F)(F)C(F)(F)C(F)(F)C(F)(F)F | % | 34.1
Cn1ccnc1S | % | 0.467
Cc1cc(N)c2ccccc2n1 | % | 27.3

Query block: Need chemical recovery, item Nc1c(Cl)c(Cl)nc(C(=O)O)c1Cl
Result block: 29.5

* * *

Assay: chemical recovery by SPE of plasma after PDMS sampling; higher = better extraction
Conditions: pooled human plasma; extraction method: HLB SPE of plasma after PES; equilibration time (d): 6
Kindly note that classification relies on chemical recovery by SPE of plasma with these boundaries: bucket 1 (below 5%), bucket 2 (5% to below 40%), bucket 3 (40% or more)

Example entries and their recorded answers appear below.
compound | class
Clc1ccc2[nH]nnc2c1 [5-Chlorobenzotriazole] | bucket 3
CN(C)C(=O)Nc1ccc(Cl)c(Cl)c1 [Diuron] | bucket 1

Query block: Categorize the following entry: OC(Cn1cncn1)(Cn1cncn1)c1ccc(F)cc1F [Fluconazole]
Result block: bucket 2

Query block: Which category does the recorded chemical recovery by SPE of plasma put O=S(=O)(O)c1cccc2ccc(O)cc12 [2-Naphthol-8-sulfonic acid] in?
Result block: bucket 3

Query block: Which category does the recorded chemical recovery by SPE of plasma put CC(Cc1ccc(C(C)(C)C)cc1)CN1C[C@@H](C)O[C@@H](C)C1 (stereo partly drawn) [Fenpropimorph] in?
Result block: bucket 1

Query block: Note: place this compound into its band. Item: CC[C@H]1OC(=O)[C@H](C)[C@@H](O[C@H]2C[C@@](C)(OC)[C@@H](O)[C@H](C)O2)[C@H](C)[C@@H](O[C@@H]2O[C@H](C)C[C@H](N(C)C)[C@H]2O)[C@](C)(O)C[C@@H](C)C(=O)[C@H](C)[C@@H](O)[C@]1(C)O [Erythromycin]
Result block: bucket 2

Query block: Which category does the recorded chemical recovery by SPE of plasma put Cc1cccc(C)c1N(Cn1cccn1)C(=O)C(=O)O [Metazachlor OA] in?
Result block: bucket 3

Query block: Form: Item = CN1CCN(C2=Nc3cc(Cl)ccc3Nc3ccccc32)CC1 [Clozapine] ; Class = ?
Result block: bucket 1

Query block: Categorize the following entry: NC(=O)N1c2ccccc2C=Cc2ccccc21 [Carbamazepine]
Result block: bucket 2

Query block: For this compound, which bin applies? c1ccc(Cc2ccccc2)cc1 [Diphenylmethane]
Result block: bucket 2

Query block: Each compound maps to one class by chemical recovery by SPE of plasma. Which class for O=C(/C=C/C=C/c1ccc2c(c1)OCO2)N1CCCCC1 [Piperine] ?
Result block: bucket 1

Query block: GET /class?item= CN1C(=O)C(O)N=C(c2ccccc2)c2cc(Cl)ccc21 (stereo not drawn) [Temazepam]
Result block: bucket 2

* * *

Assay: chemical recovery by SPE of plasma after PDMS sampling; higher = better extraction
Settings: pooled human plasma; extraction method: HLB SPE of plasma after PES; equilibration time (d): 3
Label Satisfied for high-side chemical recovery by SPE of plasma (at or above 30%) and Not satisfied for low-side chemical recovery by SPE of plasma (below it).

compound | class
CCc1cccc(C)c1NC(=O)CS(=O)(=O)O | Satisfied
CCOCCN(C(=O)CCl)C(=C(C)C)c1ccccc1 [Pethoxamid] | Not satisfied
CN(C)CCOC(c1ccccc1)c1ccccc1 [Diphenhydramine] | Not satisfied

Query block: Say whether CC1CCc2cc(F)cc3c(=O)c(C(=O)O)cn1c23 (stereo not drawn) [Flumequine] shows chemical recovery by SPE of plasma of 30% or more.
Result block: Satisfied

Query block: Quick check: does ClC(Cl)=C(c1ccc(Cl)cc1)c1ccc(Cl)cc1 [4,4-DDE] have chemical recovery by SPE of plasma greater than or equal to 30%?
Result block: Not satisfied

Query block: Say whether Clc1ccc(-c2cc(Cl)c(Cl)cc2Cl)cc1Cl [PCB118] shows chemical recovery by SPE of plasma of 30% or more.
Result block: Not satisfied

Query block: Hi team, for c1cc2ccc3ccc4ccc5cccc6c(c1)c2c3c4c56 [Benzo(ghi)perylene] , is the recorded chemical recovery by SPE of plasma at or above 30%?
Result block: Not satisfied

* * *

Test: chemical recovery from spiked human plasma; higher = better extraction
Settings: pooled human plasma; extraction method: solvent precipitation (ACN + hexane)
Exercise: state measured chemical recovery for each of the compounds provided.
One number for each entry, in %.

Use these answered entries as a reference point.
compound | assay result
COC[P+](c1ccccc1)(c1ccccc1)c1ccccc1 [(Methoxymethyl)triphenylphosphonium] | 71.1
C[C@@]12CCC[C@H]1[C@@H]1CC[C@H]3C[C@@H](O)CC[C@]3(C)[C@H]1CC2 [Androstanol] | 44.7
Cc1ccc(-c2cc(C(F)(F)F)nn2-c2ccc(S(N)(=O)=O)cc2)cc1 [Celecoxib] | 42.7
Nc1ccc2c(n1)[nH]c1ccccc12 [2-Amino-9H-pyrido[2,3-b]indole (AalphaC)] | 70.8
Clc1ccc(-c2cc(Cl)c(Cl)cc2Cl)cc1Cl [PCB118] | 32

Give me chemical recovery for each of these compounds, listed below.
1. O=c1[nH]sc2ccccc12 [1,2-Benzisothiazolinone]
2. COc1ccc(C(=O)c2ccccc2)c(O)c1 [Benzophenone-3]
3. O=C(O)C(F)(F)C(F)(F)C(F)(F)C(F)(F)C(F)(F)C(F)(F)C(=O)O [Perfluorosuberic-acid-]
4. [O-][n+]1cccc2ccccc21 [Quinoline N-oxide]

Result block:
1: 5.44; 2: 65; 3: 71.9; 4: 76.1

Please give chemical recovery for each item listed below.
1. CC(C)[C@H](C(=O)O[C@H](C#N)c1cccc(Oc2ccccc2)c1)c1ccc(Cl)cc1 [Esfenvalerate]
2. O=S(=O)(O)c1cccc2ccc(O)cc12 [2-Naphthol-8-sulfonic acid]
3. O=c1c(-c2ccc(O)cc2)coc2cc(O)cc(O)c12 [Genistein]
4. Cc1cc(C)nc(Nc2ccccc2)n1 [Pyrimethanil]
5. CCN(CC)C(=O)C(C)Oc1cccc2ccccc12 (stereo not given) [Napropamide]
6. CNC(=O)Oc1cccc2c1OC(C)(C)O2 [Bendiocarb]
7. CCCC(C)C1(CC)C(=O)NC(=O)NC1=O (stereo not given) [Pentobarbital]
8. CN(C)C(=N)NC(=N)N [Metformin]

Result block:
118
74.1
48.3
61.9
70.6
0.0898
75.7
83.3

Dear colleague, could you send me chemical recovery for each of the items below? Thanks.
1. C1CCC(NC2CCCCC2)CC1 [Dicyclohexylamine]
2. Nc1nc2ccccc2[nH]1 [2-Aminobenzimidazole]
3. c1ccc2[nH]cnc2c1 [Benzimidazole]
4. CCOC(=O)C(C#N)=C(c1ccccc1)c1ccccc1 [Etocrylene]

Result block:
1. 53.8
2. 68.3
3. 72
4. 49.9

Quick batch: chemical recovery for everything below.
1. c1ccc2sc(SN3CCOCC3)nc2c1 [2-Morpholinothiobenzothiazole]
2. Cc1cc(=O)nc(C(C)C)[nH]1 [2-Isopropyl-6-methyl-pyrimidin-4-ol]
3. CCC(C)(c1ccc(O)cc1)c1ccc(O)cc1 [Bisphenol-B]
4. CCC(Cc1ccccc1)(C(=O)c1ccc(N2CCOCC2)cc1)N(C)C (stereo not given) [Irgacure-369]

Result block:
[139, 77.2, 49.7, 77.2]

Look up chemical recovery for the entries below, preserving their order.
1. Cc1ccc(N)cc1Cl [3-Chloro-4-methylaniline]
2. CC(=O)Nc1ccccc1 [Acetanilide]
3. O=C(O)c1ccccc1C(=O)OCc1ccccc1 [Monobenzyl-phthalate]

Result block:
[76.7, 80.1, 65.3]

Would you mind listing chemical recovery for each of the following compounds?
1. O=C1Nc2ccc(Cl)cc2C(C#CC2CC2)(C(F)(F)F)O1 (stereo not given) [Efavirenz]
2. Oc1ccc(Cl)cc1Cc1ccccc1 [Chlorophene]
3. O=C(O)C(F)(F)C(F)(F)C(F)(F)F [Perfluorobutanoic acid]
4. COC(=O)CCc1cc(C(C)(C)C)c(O)c(C(C)(C)C)c1 [Methyl-3-(3,5-di-tert-butyl-4-hydroxyphenyl)propionate]
5. CCCC1CC(C(=O)NC(C(C)Cl)C2OC(SC)C(O)C(O)C2O)N(C)C1 (stereo not given) [Clindamycin]
6. CN(C)C(=O)Nc1ccc(Cl)cc1 [Monuron]
7. COP(=S)(OC)Oc1c(Cl)cc(C)cc1Cl [Tolclofos-methyl]

Result block:
[41.4, 76.9, 73, 57.6, 65.5, 74.2, 62]

For each of the items listed, what is its chemical recovery?
1. O=C(O)C(F)(F)C(F)(F)F [Perfluoropropanoic-acid]
2. CCCC[N+]1(C)[C@H]2CC(OC(=O)C(CO)c3ccccc3)C[C@H]1[C@H]1O[C@H]12 (stereo not given in full) [Scopolamine-N-butyl]
3. C[N+](C)(C)CCCl [Chlormequat]
4. ClC=C(c1ccc(Cl)cc1)c1ccc(Cl)cc1 [4,4'-DDMU]
5. O=c1[nH]c2ccccc2s1 [2-Hydroxybenzothiazole]

Result block:
86.2
65.8
85
30.1
71.6
